# cell viability listing for each entry below
- Test system: HCI09 (cells of a triple-negative luminal androgen receptor type breast cancer xenograft)
- Experimental details: cell viability (% of vehicle); higher = less cytotoxic;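 note: PDX cells carrying CMV promoter-driven luciferase, viability read as total photon flux per second by IVIS imaging following D-luciferin, vehicle control 0.1% DMSO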
- Condition notes: 10 µM; 72 h
Just the number, please, no unit after it.

Example molecules with recorded cell viability:
{"Molecule": "Cn1c(=O)cc(N2CCCC(N)C2)n(Cc2cc(F)ccc2C#N)c1=O (centres undefined)", "Test target": "HCI09", "Quantity": "cell viability", "Observed result": 112}
{"Molecule": "NC(CSCCCO)C(=O)O (centres undefined)", "Test target": "HCI09", "Quantity": "cell viability", "Observed result": 87.1}
{"Molecule": "CCOC(=O)c1ccc(OC(=O)CCCCCN=C(N)N)cc1.CS(=O)(=O)O [Gabexate mesylate]", "Test target": "HCI09", "Quantity": "cell viability", "Observed result": 98}
{"Molecule": "NCCC(O)(P(=O)(O)O)P(=O)(O)O [Pamidronate]", "Test target": "HCI09", "Quantity": "cell viability", "Observed result": 56}

Using known records, supply cell viability for O=C(NCCN1CCOCC1)c1ccc(Cl)cc1 114

Kindly indicate its recorded cell viability. Item: COc1c(N2CC3CCCNC3C2)c(F)cc2c(=O)c(C(=O)O)cn(C3CC3)c12.Cl (centres undefined) [Moxifloxacin HCl] 97.1

----------
- Test system: HCI11 (cells of an ER-positive luminal breast cancer xenograft)
- Experimental details: cell viability (% of vehicle); higher = less cytotoxic
- Condition notes: 10 µM; 72 h
Here, each record is paired with measured cell viability data.

Past entries and their recorded results:
{"Molecule": "COc1ccccc1OCCNCC(O)COc1cccc2[nH]c3ccccc3c12 (stereo unspecified) [Carvedilol]", "cell viability": 88.7}
{"Molecule": "Cc1cc(NS(=O)(=O)c2ccc(N)cc2)no1 [Sulfamethoxazole]", "cell viability": 95.4}
{"Molecule": "CC(C)NCC(O)COc1cccc2ccccc12.Cl (stereo unspecified) [Propranolol HCl]", "cell viability": 84.5}
{"Molecule": "CN1CCN(CCCN2c3ccccc3Sc3ccc(Cl)cc32)CC1 [Prochlorperazine]", "cell viability": 91.1}

# return recorded cell viability for entry CC12CCC3c4ccc(OC(=O)c5ccccc5)cc4CCC3C1CCC2O (stereo unspecified) [Estradiol Benzoate] 84.7

For the molecule COc1cc(C(=O)NC2CCCNC2)cc(OC)c1OC (stereo unspecified) [Troxipide] , report cell viability. 96.3

----------
- Tested on: HCI16 (cells of a triple-negative basal-like breast cancer xenograft)
- Experimental details: cell viability (% of vehicle); higher = less cytotoxic
- Condition notes: 10 µM; 72 h
Quantity: cell viability
Number only, please.

{"Molecule": "Cl.O=C(c1ccc(OCCN2CCCCC2)cc1)c1c(-c2ccc(O)cc2)sc2cc(O)ccc12 [Raloxifene HCl]", "Quantity": "cell viability", "Observed result": 182}
{"Molecule": "C1CNCCN1.C[C@@]12CC[C@H]3c4ccc(OS(=O)(=O)O)cc4CC[C@H]3[C@H]1CCC2=O [Estropipate]", "Quantity": "cell viability", "Observed result": 104}
{"Molecule": "COC1=C(OC)C(=O)C(CCCCCCCCCCO)=C(C)C1=O [Idebenone]", "Quantity": "cell viability", "Observed result": 104}

# next molecule below
Specify measured cell viability for Cn1nnc2c(C(N)=O)ncn2c1=O [Temozolomide] . 136

----------
Below, each entry is listed alongside its reported cell viability.
- Tested on: HCI11
- Experimental details: cell viability (% of vehicle); higher = less cytotoxic
- Condition notes: 10 µM; 72 h
Would you mind answering with just the numeric figure?

Consider the following illustrative entries.
{"Compound": "NCCS(=O)(=O)O", "Quantity": "cell viability", "Observed result": 86.6}
{"Compound": "CCNC(=O)CCCC=CCC1C(O)CC(O)C1C=CC(O)CCc1ccccc1 (stereo not drawn)", "Quantity": "cell viability", "Observed result": 97.5}
{"Compound": "COCCn1c2c([n+](Cc3cnccn3)c1C)C(=O)c1ccccc1C2=O.[Br-]", "Quantity": "cell viability", "Observed result": 60.2}
{"Compound": "CC(=O)O.CC(O)C(CO)NC(=O)C1CSSCC(NC(=O)C(N)Cc2ccccc2)C(=O)NC(Cc2ccccc2)C(=O)NC(Cc2c[nH]c3ccccc23)C(=O)NC(CCCCN)C(=O)NC(C(C)O)C(=O)N1 (stereo not drawn) [Octreotide acetate]", "Quantity": "cell viability", "Observed result": 95.4}
{"Compound": "Cl.Nc1c2c(nc3ccccc13)CCCC2 [Tacrine hydrochloride]", "Quantity": "cell viability", "Observed result": 97}
{"Compound": "CC(=O)SC1CC2=CC(=O)CCC2(C)C2CCC3(C)C(CCC34CCC(=O)O4)C12 (stereo not drawn)", "Quantity": "cell viability", "Observed result": 110}
{"Compound": "Cn1cc[nH]c1=S", "Quantity": "cell viability", "Observed result": 112}
{"Compound": "CC(O)C(=O)O.CCOc1ccc2nc3cc(N)ccc3c(N)c2c1.O [Ethacridine lactate monohydrate]", "Quantity": "cell viability", "Observed result": 36.3}
{"Compound": "CC(=O)Nc1ncc([N+](=O)[O-])s1 [Nithiamide]", "Quantity": "cell viability", "Observed result": 105}
{"Compound": "CNC1CCC(c2ccc(Cl)c(Cl)c2)c2ccccc21.Cl (stereo not drawn) [Sertraline HCl]", "Quantity": "cell viability", "Observed result": 79.2}

Answer with the recorded cell viability of COc1ccc2nc(S(=O)Cc3ncc(C)c(OC)c3C)[nH]c2c1 (stereo not drawn) only. 102

Note down cell viability recorded for O=C1OC(C(O)CO)C(O)=C1O (stereo not drawn) 84.3

Name the recorded cell viability of the item CN1CCc2nc(C(=O)NC3CC(C(=O)N(C)C)CCC3NC(=O)C(=O)Nc3ccc(Cl)cn3)sc2C1.Cc1ccc(S(=O)(=O)O)cc1.O (stereo not drawn) [Edoxaban tosylate monohydrate] in your answer. 91.2

Cited source: the supplement of paper PMC6992640
